# Test system: LCK
# EXPERIMENTAL PARAMETERS: concentration: 1 μM, replicates: in singlicate; n = 1;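 note: KINOMEscan kinase panel screen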
Decision: %Inh compared against 20%; not below it gives satisfied, below it gives not satisfied.

Look over these answered cases.
| COMPOUND | TESTED SYSTEM | CLASSIFICATION |
| --- | --- | --- |
| COc1cc2c(Nc3cccc(NC(=O)c4ccccc4)c3)ncnc2cc1OCCCN1CCOCC1 | LCK | satisfied |
| CC(C)N1CCC(n2cnc(-c3ccc(F)cc3)c2-c2ccnc(N)n2)CC1 | LCK | not satisfied |

Confirm if %Inh reported for the compound `O=C(Nc1ccccc1)Nc1ccc(Oc2ccc3nccn3n2)cc1` is 20% or above.
satisfied

Confirm if %Inh reported for the compound `Cc1cc(N2CCC(NS(=O)(=O)c3ccc(F)cc3)CC2)nc(Nc2cccc(C#N)c2)n1.O=C(O)C(F)(F)F` is 20% or above.
not satisfied

Confirm if %Inh reported for the compound `O=C(CCO)NCCn1ccc2ncnc(Nc3ccc(Oc4cccc(C(F)(F)F)c4)c(Cl)c3)c21` is 20% or above.
satisfied

====

# Test system: HCK
# EXPERIMENTAL PARAMETERS: concentration: 1 μM, replicates: in singlicate; n = 1
MEASURE: %Inh

In the examples that follow, each entry is paired with its recorded %Inh.
| COMPOUND | DATA VALUE |
| --- | --- |
| Cl.Cn1ccc(-c2cccc(Nc3ccnc4cc(-c5nccs5)ccc34)c2)n1 | 0% |
| COC(=O)c1cccc(NC(=O)NCCNc2ccnc(Nc3ccc(F)cc3)n2)c1 | 0% |
| COc1ccc(Nc2nccc(N3CCC(NC(=O)Nc4ccc5c(c4)OCO5)C3)n2)cc1 (centres unmarked) | 0% |
| Cl.Cl.c1ccc(-c2cc3ccncc3cc2OC2CCNCC2)cc1 | 0% |
| CN1c2ccc(-c3ccc(C(=O)NCCO)cc3)cc2-c2[nH]ncc2S1(=O)=O | 16% |
| CC(C)(C)c1ccc(-n2cnc3c(N)ncnc32)cc1 | 13% |
| Clc1ccc(-c2cc(-c3c[nH]nc3-c3ccccn3)ccn2)cc1 | 0% |
| CCC(CC)(CC)n1cnc2c(N)ncnc21 | 9% |

Could you tell me %Inh for each of these compounds? They are listed below.
1. O=C(Nc1n[nH]c2nc(-c3ccco3)c(Br)cc12)c1ccc(CN2CCCC2)cc1.O=C(O)[C@H](O)[C@@H](O)C(=O)O
2. Cc1ccc(C)c(NC(=O)NCCNc2ccnc(Nc3ccc(F)cc3)n2)c1
3. Nc1nccc2scc(-c3ccc4c(c3)CCN4C(=O)Cc3cc(F)ccc3F)c12
4. Cn1ccc2ncnc(Oc3ccc(NC(=O)Nc4cccnc4)c(Cl)c3)c21

1. 26%
2. 0%
3. 0%
4. 8%

Could you tell me %Inh for each of these compounds? They are listed below.
1. Cn1cc(-c2ccc3c(c2)CCN3C(=O)Cc2cccc(C(F)(F)F)c2)c2c(N)ncnc21
2. C[C@@H]1CCN(C(=O)CO)C[C@@H]1N(C)c1ncnc2[nH]ccc12
3. Nc1n[nH]c2nnc(-c3ccccc3)cc12
4. O=C(Nc1ccccc1F)NC1CCN(c2ccnc(Nc3ccc(F)cc3)n2)C1 (centres unmarked)
5. Cl.Fc1ccccc1COc1ccc(Nc2ncnc3ccc(-c4nnc(C(F)(F)F)o4)cc23)cc1Cl

["0%", "25%", "0%", "0%", "0%"]
